Data origin, for the record: the nanobody polyreactivity screen of Harvey et al. (2022)

assay: yeast display, Sf9 membrane polyspecificity reagent, FACS + sequencing; frameworks hold sequencing errors
observed_property: polyreactivity (PSR sort gate)

residue_codes	observed_property	assay_value
QVQLVESGGGLVQAGGSLLLSCAASGSIFYRYAMGWDRQAPGKERELVAAISWNGGTTYYADSVKGRFTISRDNAKNTVYLQMNSLKPEDTAVYYCAADRPTSVYLFDYWGQGTLVTVSS	polyreactivity (PSR sort gate)	high polyreactivity
QVQLVESGGGFVQAGGSLRLSCAASGSTCDGYSMGWYRQAPGKERELVAGISTSGGSTYYADSVKGRFTISRDNAKNTVYLQMNSLKPEDTAVYYCAAEWFDQVKDRAADYISYEYWGQGTQVTVSS	polyreactivity (PSR sort gate)	low polyreactivity
QVQLVESGGGLVQEGGSLRLSCAGSGRTFTFNVMGWYRQAPGKEREFVAAITGTDGSTYYADSVKGRFTISRDNAKNTVYLQMNSLKPEDTAVFYCAARYDWGYVDPGDYWGQGTQVTVSS	polyreactivity (PSR sort gate)	high polyreactivity
QVQLVESGGGLVQAGGSLRLSCAASGRIFYYNAMGGYTQAPGKERELVAAIDWSGGSTYYADSVKGRITISRANAKNTVYLQMNSLKPEDTAVYYCNAPFRYVPPEGSGPYDYWGQGTQVTVSS	polyreactivity (PSR sort gate)	low polyreactivity

Okay, next one:
Write down polyreactivity (PSR sort gate) measured for item "QVQLEESGGGLVQAGGRLRLSCDASGITLLLKAMGWYRQAPGKERELFAAISEGGGSTYYADSVKGRFTISRDNAKNTVYLQMNSLTPEDTAVYYCAADEYTPDYGQGYDYWGQGTQVTVSS" low polyreactivity
